- system: BACE-1 enzyme (Homo sapiens)
- Construct: purchased R & D Systems 931AS
- assay-remarks: BACE Fluorescence Resonance Energy Transfer (FRET) Assay
- Type: biochemical
- condition-notes: pH 4-4.5, 30 min pre-incubation, about 1.5 hours reaction
measured-endpoint: IC50 (µM)

Please review the entries below; each comes with its answer.
compound | measured-endpoint | quantitative-readout
O=C(Nc1nc2cc(-c3cc(F)cc(Cl)c3)ccc2[nH]1)c1cn2c(N3CCC(O)CC3)cccc2n1 | IC50 | 0.1
Cc1cccc2nc(C(=O)Nc3nc4ccc(-c5cc(F)cc(Cl)c5)cc4[nH]3)cn12 | IC50 | 0.28
Cc1ccc2nc(C(=O)Nc3nc4cc(-c5cccc(C(F)(F)F)c5)ccc4[nH]3)cn2c1 | IC50 | 0.41
Cc1cccn2cc(C(=O)Nc3nc4cc(OCc5ccc(C(F)(F)F)cc5)ccc4[nH]3)nc12 | IC50 | 0.19
Cc1cccn2cc(C(=O)Nc3nc4cc(-c5ccc(C(F)(F)F)cc5)ccc4[nH]3)nc12 | IC50 | 0.32

(1) CC(C)CN(C)Cc1cccn2cc(C(=O)Nc3nc4cc(-c5cccc(C(F)(F)F)c5)ccc4[nH]3)nc12
(2) COCCn1c(NC(=O)c2cn3c(C)cccc3n2)nc2cc(-c3ccc(Cl)c(C(F)(F)F)c3)ccc21
Ask: Return label of the item with the larger IC50. Candidates: 1 , 2 . # reply format: chosen label
Result: 1
(1: 0.94 µM, 2: 0.44 µM)

(A) Cc1cccc2nc(C(=O)Nc3nc4cc(-c5ccncc5)ccc4[nH]3)cn12
(B) COc1c(-c2ccc3[nH]c(NC(=O)c4cn5c(C)cccc5n4)nc3c2)cccc1C(F)(F)F
(C) CCOc1ccc(-c2ccc3[nH]c(NC(=O)c4cn5c(C)cccc5n4)nc3c2)cc1Cl [Example 106]
Ask: Sort the 3 compounds by IC50; largest first, smallest last. Would you mind listing the labels in the order requested?
Result: A, C, B

(P) Cc1cccn2cc(C(=O)Nc3nc4cc(-c5ccc(Cl)cc5)ccc4[nH]3)nc12
(Q) O=C(Nc1nc2cc(OCc3ccc(C(F)(F)F)cc3)ccc2[nH]1)c1cn2cc(Cl)ccc2n1
Ask: Please let me know which one, P or Q , has a lower measured IC50 value. Mark your answer with the label of the selected entry.
Result: Q

----------
- system: BACE-1 enzyme (Homo sapiens, UniProt P56817)
- Construct: purchased R & D Systems 931AS
- Sequence (P56817 46-457 limits assumed): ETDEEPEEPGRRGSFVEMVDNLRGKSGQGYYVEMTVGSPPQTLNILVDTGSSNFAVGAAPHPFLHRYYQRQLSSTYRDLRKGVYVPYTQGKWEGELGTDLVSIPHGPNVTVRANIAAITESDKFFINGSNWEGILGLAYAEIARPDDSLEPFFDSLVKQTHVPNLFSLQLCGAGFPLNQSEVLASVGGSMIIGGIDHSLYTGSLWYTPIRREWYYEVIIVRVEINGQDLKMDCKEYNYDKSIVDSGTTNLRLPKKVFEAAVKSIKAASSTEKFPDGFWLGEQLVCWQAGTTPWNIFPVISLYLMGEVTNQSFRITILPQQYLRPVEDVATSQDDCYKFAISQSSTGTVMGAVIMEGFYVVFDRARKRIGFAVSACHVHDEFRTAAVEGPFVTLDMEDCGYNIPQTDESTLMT
- assay-remarks: BACE Fluorescence Resonance Energy Transfer (FRET) Assay
- Type: biochemical
- condition-notes: pH 4-4.5, 30 min pre-incubation, about 1.5 hours reaction
- Experimental: BACE Fluorescence Resonance Energy Transfer (FRET) Assay In the following assay, the proteolytic activity of BACE is measured by observing cleavage of a fluorescent group from a peptide substrate containing a rhodamine fluorescent donor and a quenching acceptor. The inhibitory activity of compounds of Formula (I) may be compared to a statine derived control inhibitor STA200 (MP Biomedical Cat. #STA-200). […]
Where a name gives a salt, the structure may show the parent alone.
measured-endpoint: IC50 (µM)

Look over these answered cases.
compound | measured-endpoint | quantitative-readout
COCCNC(=O)c1cccn2cc(C(=O)Nc3nc4cc(-c5cccc(C(F)(F)F)c5)ccc4[nH]3)nc12 | IC50 | 0.31
O=C(Nc1nc2cc(OCc3cc(F)cc(Cl)c3)ccc2[nH]1)c1cn2cc(Cl)ccc2n1 | IC50 | 0.23
O=C(Nc1nc2cc(-c3cccc(C(F)(F)F)c3)ccc2[nH]1)c1cn2c(OC3CCNCC3)cccc2n1 [Example 2, trihydrochloride] | IC50 | 0.98
O=C(Nc1nc2cc(-c3cccc(C(F)(F)F)c3)ccc2[nH]1)c1cn2cccc(CN3CCOCC3)c2n1 | IC50 | 1.14

(a) Cc1cccc2nc(C(=O)Nc3nc4cc(-c5ccc(S(C)(=O)=O)cc5)ccc4[nH]3)cn12
(b) COc1cc(F)cn2cc(C(=O)Nc3nc4cc(-c5cccc(C(F)(F)F)c5)ccc4[nH]3)nc12
(c) O=C(Nc1nc2cc(OCc3cc(F)cc(F)c3)ccc2[nH]1)c1cn2cc(Cl)ccc2n1
(d) CCN(CC)Cc1cccc2nc(C(=O)Nc3nc4cc(-c5cccc(C(F)(F)F)c5)ccc4[nH]3)cn12
Ask: Order the records so the highest IC50 appears first and the lowest last. Give the labels in the order requested.
Result: a, d, b, c
(a: 1.24 µM, d: 0.65 µM, b: 0.45 µM, c: 0.17 µM)
